measurement type: melting point

INSERT INTO measurements (compound, measurement_type, test_value) VALUES
  ('CS(=O)(=O)c1ccc(C(Cc2ccc(F)cc2Cl)C(=O)Nc2nc3ccccc3o2)cc1 (stereo not drawn)', 'melting point', '127 to 128 °C'),
  ('NC(=O)c1ccc(C(Cc2ccc(F)cc2)C(=O)Nc2nc3ccccc3o2)cc1 (stereo not drawn)', 'melting point', '137 to 139 °C');

Below: the item to evaluate.
Inquiry: Consider the compound shown here: CCOC(=O)c1ccc(C(Cc2ccc(F)cc2)C(=O)Nc2nc3ccccc3o2)cc1 (stereo not drawn) What is its recorded melting point?
Reply text: 122 to 125 °C
